Each entry below lists one item and its recorded pKd value.
Biological target: T1, NHERF3_1, Q5T2W1
T1 sequence (Q5T2W1 4-100, limits assumed, looked up): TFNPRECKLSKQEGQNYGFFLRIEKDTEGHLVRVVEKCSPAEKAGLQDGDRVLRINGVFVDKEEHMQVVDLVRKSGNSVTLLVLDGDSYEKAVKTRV
Assay: holdup assay
Parameters: key: below the threshold = too weak to quantify, mostly under pKd 3.1 to 4
Conditions: plain residues with an end cap or a label only (N-terminal biotin on a linker: ttds)

BINDER	pKd
GQDSREETQL [KCNT2, Q6UVM3]	5.47
SSRTRRETQL [HPV16-E6, P03126]	5.62
STLTIFETAL [ABCC4, O15439]	6.21
SVWLRKETRV [CYSLTR2, Q9NS75]	4.8
VLRLQSETSV [VANGL1, Q8TAA9]	3.98
RSLEEEESQL [GRASP, Q7Z6J2]	5.27
TVASEKESVM [SLC1A5, Q15758]	4.42
IDNDTESTAL [ARHGAP17, Q68EM7]	5.25
SRPQRTQTQV [HPV67-E6, A4U7F2]	3.98
IYVPEAQTRL [DLGAP4, Q9Y2H0]	5.25
QSARYRDTEL [TJP2, Q9UDY2]	4.33
